Biological target: Tyrosine-protein kinase receptor TYRO3 (Homo sapiens)
Settings: at 10 µM
endpoint_label: residual activity (%)
Output spec: scalar in %, unitless text.

query: Please look up its residual activity: CCn1cnc2c(Nc3cccc(Cl)c3)nc(N[C@@H]3CCCC[C@@H]3N)nc21
result: 50

query: Okay, and O=c1[nH]c2ccccc2n1C1CCN(Cc2ccc(-c3nc4cc5[nH]cnc5cc4nc3-c3ccccc3)cc2)CC1 ?
result: 91

query: Okay, and COc1cc2ncnc(Nc3ccc(OCc4ccccc4)cc3)c2cc1OC ?
result: 60

---

Could you please report measured residual activity for the items listed next?
Molecular target: Dual specificity protein kinase CLK2 (Homo sapiens) (UniProt P49760)
Sequence (P49760 whole entry, looked up): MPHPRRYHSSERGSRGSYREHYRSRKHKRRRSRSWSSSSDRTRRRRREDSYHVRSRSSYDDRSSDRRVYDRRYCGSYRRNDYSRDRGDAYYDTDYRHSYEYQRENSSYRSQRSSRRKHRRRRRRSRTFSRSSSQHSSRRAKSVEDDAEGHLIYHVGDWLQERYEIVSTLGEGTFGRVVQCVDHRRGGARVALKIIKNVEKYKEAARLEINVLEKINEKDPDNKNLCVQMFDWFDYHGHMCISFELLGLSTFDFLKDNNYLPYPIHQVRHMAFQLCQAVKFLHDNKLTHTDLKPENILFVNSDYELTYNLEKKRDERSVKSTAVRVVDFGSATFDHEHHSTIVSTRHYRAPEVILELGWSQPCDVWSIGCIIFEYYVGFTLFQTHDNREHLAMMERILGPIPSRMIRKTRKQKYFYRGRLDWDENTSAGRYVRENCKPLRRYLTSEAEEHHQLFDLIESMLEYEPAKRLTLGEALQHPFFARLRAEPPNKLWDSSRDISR
Conditions: at 1 µM
Output spec: scalar in %, unitless text.

query: Please look up its residual activity: O=C1c2ccccc2-c2nc3nnnn3nc21
result: 115

query: Okay, and COc1ccc2c(c[n+](C)c3c4cc5c(cc4ccc23)OCO5)c1OC ?
result: 120

query: Okay, and C[S+]([O-])c1ccc(-c2nc(-c3ccc(F)cc3)c(-c3ccncc3)[nH]2)cc1 (stereo unspecified) ?
result: 114

query: Okay, and O=C1Nc2ccc3ncsc3c2/C1=C/c1c[nH]cn1 ?
result: 8

query: Okay, and O=c1[nH]c2ccccc2n1C1CCN(Cc2ccc(-c3nc4cc5[nH]cnc5cc4nc3-c3ccccc3)cc2)CC1 ?
result: 98

query: Okay, and COC(=O)[C@@]1(O)C[C@H]2O[C@]1(C)n1c3ccccc3c3c4c(c5c6ccccc6n2c5c31)C(=O)NC4 ?
result: 1
